Source listed as patent US4983616A.

IC50 values for the molecules below.
target: Brain AChE (acetylcholinesterase, rat striatum) (Rattus norvegicus, UniProt P37136); construct: corpora striata dissected free, weighed and homogenized in 19 volumes; test: In Vitro Inhibition of Acetylcholinesterase Activity in Rat Striatum
Sequence (P37136 32-614): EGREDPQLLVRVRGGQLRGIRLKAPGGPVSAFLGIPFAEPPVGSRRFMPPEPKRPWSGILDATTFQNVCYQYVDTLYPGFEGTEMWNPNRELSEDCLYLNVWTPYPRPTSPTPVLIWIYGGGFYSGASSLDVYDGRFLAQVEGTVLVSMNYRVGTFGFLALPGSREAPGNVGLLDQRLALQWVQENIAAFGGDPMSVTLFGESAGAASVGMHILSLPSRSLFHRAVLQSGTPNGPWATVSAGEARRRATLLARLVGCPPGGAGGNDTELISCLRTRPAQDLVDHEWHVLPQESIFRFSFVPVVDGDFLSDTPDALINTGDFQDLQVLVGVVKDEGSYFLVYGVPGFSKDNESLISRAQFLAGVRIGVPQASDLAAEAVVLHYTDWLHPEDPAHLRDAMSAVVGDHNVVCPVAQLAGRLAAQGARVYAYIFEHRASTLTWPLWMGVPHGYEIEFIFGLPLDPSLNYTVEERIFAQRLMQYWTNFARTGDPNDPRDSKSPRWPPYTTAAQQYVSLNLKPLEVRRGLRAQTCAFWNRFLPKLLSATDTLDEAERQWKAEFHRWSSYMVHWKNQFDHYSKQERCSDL

> print(dat)
                                   molecule                            assayed.system  assay.result
1  CN1CCC2(C)c3cc(NC(=O)Oc4ccccc4)ccc3N(C)C12.O=C(O)C(=O)O (centres unmarked) [oxalate]  Brain AChE (acetylcholinesterase, rat striatum) (Rattus norvegicus, UniProt P37136)         14 µM

Read the next record carefully.
Reported IC50, molecule CN1CCC2(C)c3cc(NC(=O)Oc4ccc(Cl)cc4)ccc3N(C)C12 (centres unmarked) [oxalate] : ____ 1.1 µM
